Origin of measurements: PubChem BioAssay (NCI)

Test system: BT-549 breast
assay explanation: NCI-60 one-dose screen, 48 h
condition parameters: 10 µM unless noted
About 83,000 compounds went through this panel and 20% of them were active in at least one assay; those are over-represented in the sample as a whole. Active and inactive are the calls of the source. The calls were made as follows: active = growth percent below 10; inactive = the rest.
Choose one outcome from this list and give only that: active, inactive

query: Give the logged outcome of this assay for the following molecule: `O=C(/C=C/c1cccc(O)c1)c1ccc(O)cc1`
result: inactive

query: Give the logged outcome of this assay for the following molecule: `O=C1Nc2ccc(Cl)cc2/C1=C/c1ccc(OCc2ccc(Br)cc2F)cc1`
result: inactive

query: Give the logged outcome of this assay for the following molecule: `Cn1cc(-c2nn3c(=O)cc(-c4ccccc4)nc3s2)c2cc(F)ccc21`
result: inactive

query: Give the logged outcome of this assay for the following molecule: `CN1CCN(c2ccc3c(C(N)=O)c(NC(=O)c4ccc(C(C)(C)C)cc4)sc3c2)CC1`
result: inactive

query: Give the logged outcome of this assay for the following molecule: `C=C1C(=O)O[C@@H]2C[C@@H](C)/C=C\C(=O)[C@](C)(OC(C)=O)C[C@H](OC(=O)/C(C)=C\C)[C@@H]12`
result: active

====

Test system: UACC-257 melanoma
assay explanation: NCI-60 one-dose screen, 48 h (100 = growth as untreated, 0 = no growth, -100 = all killed)
condition parameters: 10 µM
The panel holds about 83,000 compounds, 20% with a hit somewhere; the sample as a whole holds those more often.
metric name: growth (%)
Just the number in %, nothing appended.

For reference, reported growth for `COc1ccc(Cn2cc3c(c2-c2cc(OC)c(OC)c(OC)c2)CCCc2cnoc2-3)cc1N` stands at 90.3

For reference, reported growth for CS(=O)c1nccc(-c2c(-c3ccc(F)c(OCc4ccccc4)c3)nc3sccn23)n1 (centres undefined) stands at 19.8

For reference, reported growth for `NS(=O)(=O)c1ccc(-n2cc(CC=O)nn2)cc1` stands at 102

For reference, reported growth for `Cc1cnc2nc(NN)[nH]n12` stands at 101

For reference, reported growth for `CCOP(=O)(OCC)OC[C@]12CCC(C)(C)C[C@H]1C1=CC[C@@H]3[C@@]4(C)C/C(=C\c5cccnc5)[C@H](OP(=O)(OCC)OCC)C(C)(C)[C@@H]4CC[C@@]3(C)[C@]1(C)CC2` stands at 23.7

For reference, reported growth for `O=C(NCCCNc1cc(-c2cn(-c3ccccc3)nc2-c2cccc(O)c2)ccn1)Nc1ccc(F)cc1` stands at -51.9

For reference, reported growth for `COc1ccc(S(=O)(=O)NCCCNc2nccc(-n3cnc4ccccc43)n2)cc1` stands at 100

For reference, reported growth for C#CCOc1ccc(C(Nc2ccc(OC)cc2)c2nnnn2C2CCCCC2)cc1 (centres undefined) stands at 102

For reference, reported growth for `O=S(=O)(Nc1ccc(-n2cnc3cc(-c4ccc(O)cc4)ccc32)cc1)C1CC1` stands at 98.2

====

Test system: OVCAR-8 ovarian
assay explanation: NCI-60 one-dose screen, 48 h
condition parameters: 10 µM unless noted
Compounds without any hit were thinned out: in the full panel of roughly 83,000, 20% have a hit. Calls of active or inactive are those of the source. How the source made its calls: active means growth percent below 10; inactive means the rest.
Choose one outcome from this list and give only that: yes (1) = active, no (0) = inactive

query: Give the logged outcome of this assay for the following molecule: `COc1ccc(-c2oc3cc(O)cc(O)c3c(=O)c2OC)cc1O`
result: no (0)

query: Give the logged outcome of this assay for the following molecule: CC(=O)c1ccc(NC(=O)COc2ccc(C3SCC(=O)N3c3ccc(Br)cc3)cc2)cc1 (centres undefined)
result: no (0)

query: Give the logged outcome of this assay for the following molecule: `CC[C@@](C)(NC(=O)C(C)(C)NC(=O)[C@@H](NC(=O)[C@@H]1CCCN1C(=O)C(C)(C)NC(=O)[C@H](CC(C)C)NC(=O)CNC(=O)C(C)(C)NC(=O)[C@@H](NC(=O)C(C)(C)NC(=O)[C@H](CCC(N)=O)NC(=O)[C@H](C)NC(=O)C(C)(C)NC(=O)[C@H](C)NC(=O)C(C)(C)NC(=O)[C@@H]1CCCN1C(=O)C(C)(C)NC(C)=O)C(C)C)C(C)C)C(=O)N[C@@H](CCC(N)=O)C(=O)N[C@@H](CCC(N)=O)C(=O)N[C@H](CO)Cc1ccccc1`
result: no (0)

query: Give the logged outcome of this assay for the following molecule: `COc1ccc(C(=O)c2c(N)c(C#N)cn2-c2cccc(OC)c2)cc1`
result: no (0)

query: Give the logged outcome of this assay for the following molecule: `COc1ccc(-c2nc3cc(Cl)c(Cl)cc3n2CC(=O)N=Nc2c(O)[nH]c3ccccc23)cc1`
result: no (0)

query: Give the logged outcome of this assay for the following molecule: `COc1cc(/C=N/n2cnc3oc(-c4ccccc4)cc3c2=N)cc(CN2CCCC2)c1O`
result: yes (1)

query: Give the logged outcome of this assay for the following molecule: `COc1cc2c3c(n(CCCN4CCCCC4)c(=O)c2cc1OC)-c1cc2c(cc1C3=O)OCO2`
result: yes (1)

query: Give the logged outcome of this assay for the following molecule: `COc1cc2c3c(n(CCCNC4CCC4)c(=O)c2cc1OC)-c1cc2c(cc1C3=O)OCO2`
result: yes (1)

query: Give the logged outcome of this assay for the following molecule: CC1(C)CC[C@]2(C(=O)O)CC[C@]3(C)C(=CCC4[C@@]5(C)C[C@@H](O)[C@@H]6OC(c7ccccc7O)OC[C@@]6(C)C5CC[C@]43C)C2C1 (some centres undefined)
result: no (0)

query: Give the logged outcome of this assay for the following molecule: `CC1(COc2ccc3ncc(C#Cc4cncc(C(=O)Nc5cc(C(C)(C)C)on5)c4)n3n2)COC1`
result: no (0)

query: Give the logged outcome of this assay for the following molecule: `O=C(Nc1cccc(Cl)c1)Nc1nc2ccc(-c3cccc4ccccc34)cc2s1`
result: no (0)

query: Give the logged outcome of this assay for the following molecule: `COc1ccc([C@@H]2[C@@H](O)C(=O)N2c2cc(OC)c(OC)c(OC)c2)cc1`
result: yes (1)

query: Give the logged outcome of this assay for the following molecule: `Cc1cc2nc(C(Cl)Cl)nc(-c3ccco3)n2n1`
result: no (0)

query: Give the logged outcome of this assay for the following molecule: C#CCOc1ccc(C(Nc2ccc(Cl)cc2)c2nnnn2C2CCCCC2)cc1 (centres undefined)
result: no (0)

query: Give the logged outcome of this assay for the following molecule: `O=S(=O)(NCCCNc1nccc(-n2cnc3ccccc32)n1)c1ccc(F)cc1`
result: no (0)

query: Give the logged outcome of this assay for the following molecule: `O=C(O)c1ccc(-n2cc(CNc3ccc(F)cc3)c(-c3ccc(C(F)(F)F)cc3)n2)cc1`
result: no (0)

query: Give the logged outcome of this assay for the following molecule: `CCNCc1c(-c2cccc(OC(F)(F)F)c2)[nH]c2ccc(N3CCCC3)cc2c1=O`
result: no (0)

query: Give the logged outcome of this assay for the following molecule: `COc1ccc(S(=O)(=O)n2cc(C=O)c3ccccc32)c(OC)c1`
result: no (0)

query: Give the logged outcome of this assay for the following molecule: `O=C(/C=C1\C=CN(CCCCO)c2ccccc21)n1ccc2ccccc21`
result: no (0)

query: Give the logged outcome of this assay for the following molecule: `Oc1ccc(CSc2nnc(-c3cnccn3)o2)c2cccnc12`
result: no (0)

query: Give the logged outcome of this assay for the following molecule: `C=C(C)[C@@H]1CC[C@]2(C(=O)ON)CC[C@]3(C)[C@H](CC[C@@H]4[C@@]5(C)C/C(=C/c6ccc(Br)cc6)C(=O)C(C)(C)[C@@H]5CC[C@]43C)[C@@H]12`
result: no (0)

query: Give the logged outcome of this assay for the following molecule: `Cc1ccccc1/C=C/c1nn2c(-c3ccoc3C)nnc2s1`
result: no (0)

query: Give the logged outcome of this assay for the following molecule: `COc1ccccc1/C=C/C(=O)c1nnn(-c2ccc(C(=O)O)cc2)c1C`
result: no (0)

query: Give the logged outcome of this assay for the following molecule: `COc1cnc2c(c1)C(=O)c1c-2n(CCCNCC2CC2)c(=O)c2cc(F)ccc12`
result: yes (1)

query: Give the logged outcome of this assay for the following molecule: `COc1cc2cc(Oc3ccc(NC(=O)Nc4cccc(C(F)(F)F)c4)cc3)c(C)nc2cc1OCCN(C)C`
result: no (0)

query: Give the logged outcome of this assay for the following molecule: C#CCOc1ccc(C(Nc2ccc(OC)cc2)c2nnnn2C2CCCCC2)cc1 (centres undefined)
result: no (0)

query: Give the logged outcome of this assay for the following molecule: `CC(=O)Nc1ccc(C)c(Nc2cc(-c3ccc(-n4cccn4)cc3)[nH]n2)c1`
result: no (0)

query: Give the logged outcome of this assay for the following molecule: `CC(C)Sc1nc(NC2CC2)c(C#N)c(-c2ccccc2)n1`
result: no (0)

query: Give the logged outcome of this assay for the following molecule: `COc1ccc(-c2cc(-c3cccc4ccccc34)n3c(n2)nc2ccccc23)cc1`
result: no (0)

query: Give the logged outcome of this assay for the following molecule: CCC(CC)N1C(=O)/C(=c2\sc3n(c2=O)C2C(NN=3)N(CC)C(=O)N2CC)c2ccccc21 (centres undefined)
result: no (0)

query: Give the logged outcome of this assay for the following molecule: `C=C(C)C(=O)O[C@H]1C[C@@]2(C)OC(=CC2=O)/C(C)=C\[C@H]2OC(=O)C(=C)[C@H]12`
result: yes (1)

query: Give the logged outcome of this assay for the following molecule: `c1cncc(-c2cn3nc(-c4c[nH]c5ccccc45)sc3n2)c1`
result: no (0)

query: Give the logged outcome of this assay for the following molecule: `CCCCCCNC(=O)Oc1ccc(/C(=C(\C)c2ccc(OC)cc2)c2ccc(OCCN(C)C)cc2)cc1`
result: no (0)

query: Give the logged outcome of this assay for the following molecule: `CC(=O)Nc1nc2c(s1)C1=CC[C@H]3[C@@H]4CC[C@H](C(C)=O)[C@@]4(C)CC[C@@H]3[C@@]1(C)CC2`
result: no (0)
